This collection of values is drawn from PubChem BioAssay (NCI).

Record form. Attribute: growth. Fill in for each entry.
# System: RPMI-8226 leukemia
# experiment.notes: NCI-60 one-dose screen, 48 h (100 = growth as untreated, 0 = no growth, -100 = all killed)
# applied.conditions: 10 µM unless noted
The panel holds about 83,000 compounds, 20% with a hit somewhere; the sample as a whole holds those more often. Active and inactive are the calls of the source. The calls were made as follows: active = growth percent below 10; inactive = the rest.

Consider the reported growth for these compounds:
compound | growth
C=CCn1c(SCC(=O)Nc2ccc(C(=O)/C=C/c3ccc(Br)cc3)cc2)nnc1-c1c[nH]c2ccccc12 | 3.64% (active)
NS(=O)(=O)c1ccc(Nc2nc(Nc3ccccc3)nc3nnc(SCC(=O)NC4CCCCC4)n23)cc1 | 105% (inactive)
O=C(CSc1nnc(-c2ccc3nc(-c4ccccc4)[nH]c3c2)o1)Nc1ccc(C(=O)/C=C/c2ccccc2)cc1 | 94.3% (inactive)
COc1ccc(COc2ccc(/C=C3\C(=O)Nc4ccccc43)cc2OC)cc1 | 104% (inactive)
COc1cc(/C=N/NC(=O)c2cn(C3CC3)c3c(OC)c(N4CC5CCCNC5C4)c(F)cc3c2=O)ccc1O (stereo not drawn) | -25% (active)

For every item in the list below, what is its measured growth?
1. NS(=O)(=O)c1ccc(Nc2nc(N/N=C/c3ccccn3)nc(Nc3ccccc3)n2)cc1
2. Nc1nc(-c2cccc([N+](=O)[O-])c2)c(N=Nc2ccc([N+](=O)[O-])cc2Cl)s1
3. NC(N)=Nc1ccc(Oc2cccc(Nc3ccc(Br)c(C(F)(F)F)c3)c2)cc1
4. NS(=O)(=O)c1ccc(Nc2nc(SCC(=O)c3ccc(Cl)cc3)nc3c2CCCC3)cc1
5. O=C(/C=C/c1ccc(F)cc1)c1ccc(O)cc1
6. CC(=O)c1nnn(-c2c(C(=O)n3nc(C)cc3C)sc(=S)n2-c2ccccc2)c1C

1. 36.6% (inactive)
2. -6.23% (active)
3. -44.1% (active)
4. 42.8% (inactive)
5. 23.9% (inactive)
6. 101% (inactive)

For every item in the list below, what is its measured growth?
1. COc1ccc(/C=N/NC2=NC3C(S2)N(C)C(=O)N3C)cc1 (stereo not drawn)
2. COc1cc(OC)cc(C(=O)Nc2cccc(C#Cc3cccc4[nH]nc(N)c34)c2)c1
3. NC(N)=Nc1ccc(Nc2cccc(Nc3ccc(Cl)c(C(F)(F)F)c3)c2)cn1
4. C=C(C)[C@@H]1CC[C@]2(COC)CC[C@]3(C)[C@H](CC[C@@H]4[C@@]5(C)CCCNC(C)(C)[C@@H]5CC[C@]43C)[C@@H]12
5. CCc1nn2c(C)cc(C)nc2c1Cc1ccc(/C=C/CN2CCN(CCOCCOCCN3CCN(C/C=C/c4ccc(Cc5c(CC)nn6c(C)cc(C)nc56)cc4)CC3)CC2)cc1
6. CC(O)c1cc2ccccc2c(=O)o1 (stereo not drawn)
7. Cc1ccc(-n2cc(/C=C/C(=O)c3ccc(O)cc3)c(-c3ccc(S(C)(=O)=O)cc3)n2)cc1

["10.5% (inactive)", "18.6% (inactive)", "13% (inactive)", "-36.8% (active)", "-41.9% (active)", "96.8% (inactive)", "47.9% (inactive)"]

* * *

# Tested on: T-47D breast
# experiment.notes: NCI-60 one-dose screen, 48 h (100 = growth as untreated, 0 = no growth, -100 = all killed)
# applied.conditions: 10 µM unless noted
The panel holds about 83,000 compounds, 20% with a hit somewhere; the sample as a whole holds those more often. Calls of active or inactive are those of the source. The calls were made as follows: active = growth percent below 10; inactive = the rest.
endpoint.name: growth

Consider the reported growth for these compounds:
compound | result
Cc1ccc(N2C(=O)/C(=C/C=C/c3ccco3)SC2=S)cc1 | 71.6% (inactive)
O=S(=O)(NC1c2ccccc2C[C@H]1O)c1ccc(Cl)cc1Cl (stereo not given in full) | 93.7% (inactive)
COc1ccc(-c2nc3cc(Cl)c(Cl)cc3n2CC(=O)N=Nc2c(O)[nH]c3ccc(OC)cc23)cc1 | 37.2% (inactive)
COc1cccc(O)c1/C=C(/C)c1ccc2c(OC)cccc2[o+]1 | 106% (inactive)

For every item in the list below, what is its measured growth?
1. Cc1ccc(CSc2nc(-c3ccc(Cl)cc3)c(C#N)c(N3CCNCC3)n2)cc1
2. Cn1ccnc1C(=O)/C=C/c1ccc(CNC(=O)c2ccc(S(F)(F)(F)(F)F)cc2)cc1
3. CCC(NC(c1cc2cccc3ccc4cccc1c4c32)c1nnnn1C(C)(C)C)C1CCCCC1 (stereo not given)
4. O=C(CNc1nc(-c2cccc([N+](=O)[O-])c2)cs1)Nc1cccc([N+](=O)[O-])c1
5. COc1ccc(C2CC(c3cccc(Nc4nc(Cl)nc5cc(OC)c(OC)cc45)c3)=Nc3c(N)nc(N)nc3N2)cc1 (stereo not given)
6. CCOc1ccc(C(=O)Nc2ncc(Cc3ccc(F)cc3)s2)cc1

1: 88.8% (inactive); 2: 25% (inactive); 3: 74.6% (inactive); 4: -5.2% (active); 5: 81.7% (inactive); 6: 34.1% (inactive)
